Each entry below lists one item and its recorded growth inhibition value.
Assay: NCI Yeast Anticancer Drug Screen. Data for the sgs1 mgt1 strain (AID 161);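 also: 0% = growth of cultures given vehicle only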
Conditions: S. cerevisiae sgs1 mgt1 strain, at 50.0 µM (retest, dose inferred, filed as 5.0), stronger effect = higher value
This is part of a sample that, as a whole, favours compounds with a hit. Of some 79,000 tested, about 15% had one in any assay.

Compound	growth inhibition [%]
Oc1ccc2c(c1)OCC1c3ccccc3OC21 (centres undefined)	73
Nc1cc2c(nc3c4ccccc4c(N)cc3[n+]2-c2cccc3ccccc23)c2ccccc12 (tested in a mixture with another compound)	94
Cc1cc(N=Nc2ccncc2C)ccc1N	98
C1CCN(c2nc(N3CCOCC3)c3[nH]c(N4CCCCC4)nc3n2)CC1	86
Clc1ccc(CNc2ccc(Cl)c(Cl)c2)cc1	97
CCCCC#CC(=O)OCCCCC	3
CC12C=C3CC(OC(=O)c4ccccc4)CCC3(O1)c1ccccc12 (centres undefined)	80
OCCN1c2ccccc2Sc2ccc(Cl)cc21	40
O=c1[nH]c2cc(Cl)ccc2nc1/C=C(\O)c1ccccn1	71

The measured values listed here are drawn from PubChem BioAssay (NCI).
